This collection of values is drawn from PubChem BioAssay AID1626.

Listed below: inhibition values for each entry.
experimentSummary: M. tuberculosis H37Rv growth inhibitors, H37Rv strain (AID 1626);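 note: bacteria incubated seven days before Alamar blue readout; 0% = bacteria only wells and 100% = bacteria with antibiotic wells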
settings: hits give high values, concentration not given here
Hit rate of the full screen: of about 220,000 compounds, about 2,000 (0.91%) were called active. Another 2% or so got no clear call; they are omitted. Not all results are given here. Results with a measured potency or affinity are listed apart.

Consider the worked cases shown below.
>>> print(df.to_string())
                  compoundstructurestring  observable             result
0                COc1cc(/C=C/C(=O)O)ccc1O  inhibition  -3.73% (inactive)
1     c1cncc(-c2nc(N3CCOCC3)c3ccccc3n2)c1  inhibition  -2.03% (inactive)
2  O=C(CNc1cccc2ccccc12)N/N=C/C=C/c1ccco1  inhibition  -2.95% (inactive)
3      Fc1ccccc1-c1nc(N2CCCCC2)c2ccccc2n1  inhibition    7.2% (inactive)
4     c1ccc2c(N3CCOCC3)nc(-c3ccncc3)nc2c1  inhibition  -3.11% (inactive)

--- query ---
So for CCOc1cc(/C=C/c2ccc3cccc([N+](=O)[O-])c3n2)ccc1O , the logged inhibition turned out to be -4.71% (inactive)
